B1: INTS3 (parent)
chain: YPPLEGHVRQGVFSSLNHIVEKRV

Variants of: B1
measurement protocol: protein stability index of a GFP-peptide fusion (GPS, HEK-293T) (PSI 1-6); higher = more stable;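 also: lentivirally expressed fusions sorted by FACS into six bins by GFP to DsRed ratio, PSI derived from sequencing read proportions per bin multiplied by bin number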
condition: c terminus: a fixed tail appended
Reported protein stability index values are given for each entry in this list.
Form field (numeric): enter value without unit.

// returns reported protein stability index for input V8R 2.75

Now the same for V20E 3.08

Cool, now G11D 2.59

Again, but for I19V 2.52

# iterate: F13V 3.7

---
Requested read-out: protein stability index. Entry: R23S 2.67

Next up: E21D 3.35

The measured values listed here are drawn from the supplement of paper PMC10567573.
